biological target: PIK3CA (Homo sapiens); construct: endogenous in cells; assay: In vitro ELISA target engagement assay for PIK3CA in Jurkat cellular lysate (competition with PIK3CA Biotin Probe); conditions: 1 hour at rt, then 500 nM PIK3CA Biotin Probe, read-out: Elisa Target Engagement Assay (TE50)
Sequence (P42336 whole entry): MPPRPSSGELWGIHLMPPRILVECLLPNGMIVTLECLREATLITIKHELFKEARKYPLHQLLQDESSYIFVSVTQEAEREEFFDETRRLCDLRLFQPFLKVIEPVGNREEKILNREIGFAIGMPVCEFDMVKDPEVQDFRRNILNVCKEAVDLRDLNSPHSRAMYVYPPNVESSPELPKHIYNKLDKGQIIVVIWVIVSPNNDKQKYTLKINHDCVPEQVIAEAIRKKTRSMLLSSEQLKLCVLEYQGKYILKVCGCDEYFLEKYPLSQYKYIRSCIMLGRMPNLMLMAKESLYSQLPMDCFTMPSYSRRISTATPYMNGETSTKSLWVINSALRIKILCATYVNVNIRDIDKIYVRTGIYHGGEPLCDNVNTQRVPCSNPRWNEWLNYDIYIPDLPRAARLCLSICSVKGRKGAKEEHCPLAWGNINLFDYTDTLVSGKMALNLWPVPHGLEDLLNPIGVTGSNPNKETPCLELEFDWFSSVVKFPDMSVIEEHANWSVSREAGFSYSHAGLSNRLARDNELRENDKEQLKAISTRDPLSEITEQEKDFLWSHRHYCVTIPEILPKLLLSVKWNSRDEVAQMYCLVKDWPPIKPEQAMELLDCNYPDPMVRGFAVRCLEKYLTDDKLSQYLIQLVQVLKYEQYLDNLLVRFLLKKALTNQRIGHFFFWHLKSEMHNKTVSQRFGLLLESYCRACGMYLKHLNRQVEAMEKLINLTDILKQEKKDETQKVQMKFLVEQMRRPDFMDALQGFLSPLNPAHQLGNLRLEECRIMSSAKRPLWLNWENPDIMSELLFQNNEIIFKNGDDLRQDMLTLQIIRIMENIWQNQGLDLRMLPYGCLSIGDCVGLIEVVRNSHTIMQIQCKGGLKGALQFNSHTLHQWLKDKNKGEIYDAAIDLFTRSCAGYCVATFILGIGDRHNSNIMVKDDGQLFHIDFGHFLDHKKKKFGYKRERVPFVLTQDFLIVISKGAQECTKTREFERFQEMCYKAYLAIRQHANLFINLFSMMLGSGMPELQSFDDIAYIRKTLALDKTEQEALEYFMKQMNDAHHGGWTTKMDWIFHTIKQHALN
Sequence (P27986 whole entry partner): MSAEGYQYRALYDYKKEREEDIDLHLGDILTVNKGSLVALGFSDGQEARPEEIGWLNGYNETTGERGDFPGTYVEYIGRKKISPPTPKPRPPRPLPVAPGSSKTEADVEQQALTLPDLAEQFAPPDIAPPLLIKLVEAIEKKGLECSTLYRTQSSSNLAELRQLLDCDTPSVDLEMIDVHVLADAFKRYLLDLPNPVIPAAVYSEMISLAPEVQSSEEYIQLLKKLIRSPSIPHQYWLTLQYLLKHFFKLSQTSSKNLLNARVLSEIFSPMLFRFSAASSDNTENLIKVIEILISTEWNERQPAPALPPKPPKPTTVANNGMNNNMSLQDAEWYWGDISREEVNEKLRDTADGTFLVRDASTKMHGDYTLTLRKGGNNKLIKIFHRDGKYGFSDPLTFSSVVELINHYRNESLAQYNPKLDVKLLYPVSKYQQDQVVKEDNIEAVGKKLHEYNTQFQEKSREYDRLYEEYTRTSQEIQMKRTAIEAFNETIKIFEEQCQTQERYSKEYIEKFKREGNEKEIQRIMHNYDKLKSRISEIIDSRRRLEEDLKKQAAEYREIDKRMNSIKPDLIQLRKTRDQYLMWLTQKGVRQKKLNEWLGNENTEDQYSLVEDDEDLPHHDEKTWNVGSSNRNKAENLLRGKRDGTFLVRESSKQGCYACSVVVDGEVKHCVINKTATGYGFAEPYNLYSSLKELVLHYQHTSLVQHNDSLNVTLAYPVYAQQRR
pIC50: −log10 of the molar value.
Reported pIC50 values are given for each entry in this list.
MEASUREMENT NAME: pIC50

- C[C@@H](/C=C/S(=O)(=O)C1CNC1)NC(=O)C1(F)CCN(S(=O)(=O)c2ccc(Br)cc2-c2ccccc2Cl)CC1: 6.85
- CC(C)OC(=O)N1C[C@H](C(=O)N2CCC(F)(C(=O)N[C@H](C)/C=C\S(C)(=O)=O)CC2)[C@H](c2ccccc2Cl)C1: 6.01
- C[C@H](/C=C\S(C)(=O)=O)NC(=O)C1(F)CCN(C(=O)C2CCN(C(=O)OC(C)(C)C)C=C2c2ccccc2Cl)CC1 (stereo partly shown): 6.05
- C[C@H](/C=C/C(=O)N1CC(F)(F)C1)NC(=O)C1(F)CCN(S(=O)(=O)c2ccc(C#N)cc2-c2ccccc2Cl)CC1: 6.72
- C[C@H](/C=C\S(C)(=O)=O)NC(=O)C1(F)CCN(S(=O)(=O)c2cnc(Cl)cc2-c2ccccc2Cl)CC1: 6.89
- COc1cccc(-c2cc(F)ccc2S(=O)(=O)N2CCC(F)(C(=O)N[C@@H](C)/C=C\S(C)(=O)=O)CC2)c1: 6.24
- C=Cc1ccc(S(=O)(=O)N2CCC(F)(C(=O)N[C@H](C)/C=C\S(C)(=O)=O)CC2)c(-c2ccccc2Cl)c1: 6.70
- CCCCCOc1cccc(-c2cc(Cl)ccc2S(=O)(=O)N2CCC(F)(C(=O)N[C@@H](C)/C=C\S(C)(=O)=O)CC2)c1: 6.11
- CC(O)c1ccc(S(=O)(=O)N2CCC(F)(C(=O)N[C@H](C)/C=C\S(C)(=O)=O)CC2)c(-c2ccccc2Cl)c1 (stereo partly shown): 6.36
- C[C@H](/C=C/C(=O)N1CC(F)C1)NC(=O)C1(F)CCN(S(=O)(=O)c2ccc(C(F)(F)F)cc2-c2ccccc2Cl)CC1: 6.26
- CCCOc1cccc(-c2cc(Cl)ccc2S(=O)(=O)N2CCC(F)(C(=O)N[C@@H](C)/C=C\S(C)(=O)=O)CC2)c1: 6.33
- CO/N=C/c1cccc(-c2cc(Cl)ccc2S(=O)(=O)N2CCC(F)(C(=O)N[C@@H](C)/C=C\S(C)(=O)=O)CC2)c1: 5.96
- CC#CCOc1cccc(-c2cc(Cl)ccc2S(=O)(=O)N2CCC(F)(C(=O)N[C@@H](C)/C=C\S(C)(=O)=O)CC2)c1: 6.32
- COc1ccc(Cl)c(-c2cc(Cl)ccc2S(=O)(=O)N2CCC(F)(C(=O)N[C@@H](C)/C=C\S(C)(=O)=O)CC2)c1: 6.70
- C[C@H](/C=C/C(=O)N1CC(F)(F)C1)NC(=O)C1(F)CCN(S(=O)(=O)c2ccc(C(F)(F)F)cc2-c2ccccc2Cl)CC1: 6.75
- C[C@@H](/C=C\S(C)(=O)=O)NC(=O)C1(F)CCN(S(=O)(=O)c2ccc(Cl)cc2-c2cccc(OCc3ccccc3Cl)c2)CC1: 6.48
- COc1ccc(C(=O)N2CCC[C@](F)(C(=O)N[C@H](C)/C=C\S(C)(=O)=O)CC2)c(-c2ccccc2Cl)c1: 6.46
- C[C@H](/C=C\S(C)(=O)=O)NC(=O)C1(F)CCN(S(=O)(=O)c2ccc(Br)cc2-c2ccccc2C(F)(F)F)CC1: 6.07
- C[C@H](/C=C\S(=O)(=O)[C@@H]1CCN(C)C1)NC(=O)C1(F)CCN(S(=O)(=O)c2ccc(Br)cc2-c2ccccc2Cl)CC1 (single isomer, unassigned): 7.26
- COc1ccc(S(=O)(=O)N2CCC(F)(C(=O)N[C@H](C)/C=C/C#N)CC2)c(-c2ccccc2Cl)c1: 5.96
- [2H]C([2H])([2H])Oc1ccc(S(=O)(=O)N2CC[C@@](F)(C(=O)N[C@H](C)/C=C\S(C)(=O)=O)C[C@H]2C)c(-c2ccccc2Cl)c1: 7.11
- Cc1ccc([C@@H]2CN(CC(F)(F)F)C[C@@H]2C(=O)N2CCC[C@](F)(C(=O)N[C@H](C)/C=C\S(C)(=O)=O)CC2)c(Cl)c1 (single isomer, unassigned): 6.68
- C[C@H](/C=C\S(C)(=O)=O)NC(=O)C1(F)CCN(C(=O)[C@H]2CN(CC(F)F)C[C@H]2c2ccccc2Cl)CC1: 6.10
- O=C(/C=C/CNC(=O)C1(F)CCN(S(=O)(=O)c2ccc(C(F)(F)F)cc2-c2ccccc2Cl)CC1)N1CC(F)(F)C1: 6.70
- COc1ccc(S(=O)(=O)N2CCC(F)(C(=O)N[C@H](C)/C=C\S(C)(=O)=O)CC2)c(-c2cccc(Cl)c2)c1: 6.11

Reference for the values: patent US20250026721A1
